B1: GMCL1 (parent)
chain: FCYCAGSHKRKRSSGSFCYCHPDS

# Variants of: B1
# assay comment: protein stability index of a GFP-peptide fusion (GPS, HEK-293T) (PSI 1-6); higher = more stable;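 further: lentivirally expressed fusions sorted by FACS into six bins by GFP to DsRed ratio, PSI derived from sequencing read proportions per bin multiplied by bin number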
# measurement parameters: c terminus: a fixed tail appended
Each entry below carries its recorded protein stability index.

variant string: S14Y
protein stability index: 2.07
--
variant string: H8K
protein stability index: 1.99
--
variant string: C20K
protein stability index: 1.58
--
variant string: S13Y
protein stability index: 1.7
--
variant string: P22G
protein stability index: 2.44
--
variant string: G15P
protein stability index: 1.6
--
variant string: K9M
protein stability index: 1.77
--
variant string: S24N
protein stability index: 2.12
--
variant string: A5D
protein stability index: 2.38
--
variant string: C2L
protein stability index: 1.79
--
variant string: S14L
protein stability index: 2.6
